Test system: anti-OVA-IgE antibody production
METHOD DESCRIPTION: Suppressive effect on mouse in vivo anti-OVA-IgE antibody production
CONDITIONS USED: po, 336 h, BALB/c mice immunized with OVA on aluminium hydroxide gel, 100 mg/kg orally once a day for 5 days, serum on day 14, PCA reaction in Wistar rats, read-out: Suppressive rate for IgE antibody production (%)
MEASURED QUANTITY: inhibition in vivo at 100 mg/kg (%)
Numbers only here, please. The scale is %.

>>> value_observed("C=CCOc1ccc(-c2cc(CCC(=O)OC)ccc2OCc2ccccc2)cc1 [Control(2), reference compound]")
-11.6
>>> value_observed("CCCCOc1c(NC(C)=O)cc(CCC(=O)O)cc1-c1ccccc1")
64.2
>>> value_observed("NC(=O)Nc1cc(CCC(=O)O)cc(-c2ccccc2)c1OCC1CCCCC1")
48.1
>>> value_observed("O=C(O)CCCc1ccc(OCC(=O)O)c(-c2ccccc2)c1")
71.5
>>> value_observed("CCCCOc1ccc(CCCC(=O)NCC)cc1-c1ccccc1 [Control(5), reference compound]")
-2.5
>>> value_observed("O=C(O)CCCc1ccc(OCCC(=O)O)c(-c2ccccc2)c1")
57

Report inhibition in vivo at 100 mg/kg for "CCCCCOc1ccc(CCC(=O)O)cc1-c1ccccc1"
50.9

Query inhibition in vivo at 100 mg/kg for "CCCCOc1ccc(CCCC(N)=O)cc1-c1ccccc1"
55.7

Please give the documented inhibition in vivo at 100 mg/kg of "NC(=O)COc1ccc(CCCC(=O)O)cc1-c1ccccc1"
65.7

----------
Below, each entry is listed with its recorded inhibition in vivo at 100 mg/kg.
Tested on: anti-OVA-IgE antibody production
METHOD DESCRIPTION: Suppressive effect on mouse in vivo anti-OVA-IgE antibody production
CONDITIONS USED: po, 336 h, BALB/c mice immunized with OVA on aluminium hydroxide gel, 100 mg/kg orally once a day for 5 days, serum on day 14, PCA reaction in Wistar rats, read-out: Suppressive rate for IgE antibody production (%)
Output spec: scalar in %, unitless text.

>>> value_observed("CCCCOc1ccc(CCC(=O)O)cc1-c1ccccc1 [Compound(01)]")
72.3
>>> value_observed("O=C(O)CCc1ccc(OC2CCCC2)c(-c2ccccc2)c1 [Compound(04)]")
45.5
>>> value_observed("CC1(C)CCC(C)(C)c2cc(COc3cccc(CCC(=O)O)c3-c3cccc(C(=O)O)c3)ccc21 [Control(4), reference compound]")
-8.4
>>> value_observed("CCCCOc1ccc(CCCC(=O)O)cc1-c1ccccc1 [Compound(28)]")
44.5

Next up:
Check the records and state inhibition in vivo at 100 mg/kg for COc1ccc(CCC(=O)O)cc1-c1ccccc1 [Control(1), reference compound]
-14.4

meta.source: patent US6376546B1
